Where do the numbers come from? From ChEMBL document CHEMBL2321753.

Test system: Liver
run description: Biodistribution in ddY mouse liver at 0.1 to 0.4 uCi, iv after 10 mins by gamma counting
Format: ADME, organism-based
recorded conditions: in vivo

>  <molecule>
COc1ccc2nc3cc([125I])ccc3c(OC)c2c1

>  <Drug uptake (% ID/g)>
20.85

$$$$
>  <molecule>
COc1ccc2nc3cc([125I])ccc3c(N(C)C)c2c1

>  <Drug uptake (% ID/g)>
11.77

$$$$
>  <molecule>
COc1ccc2nc3cc([125I])ccc3c(N)c2c1

>  <Drug uptake (% ID/g)>
14.79

$$$$
>  <molecule>
COc1c2ccc([125I])cc2nc2ccc(N(C)C)cc12

>  <Drug uptake (% ID/g)>
20.71

$$$$
>  <molecule>
CCN(CC)CCCC(C)Nc1c2ccc([125I])cc2nc2ccc(OC)cc12 (stereo unspecified)

>  <Drug uptake (% ID/g)>
9.7

$$$$
>  <molecule>
CNc1c2ccc([125I])cc2nc2ccc(OC)cc12

>  <Drug uptake (% ID/g)>
16.41

$$$$

---

Tested on: Blood
run description: Biodistribution in ddY mouse blood at 0.1 to 0.4 uCi, iv after 2 mins by gamma counting
Assay type: ADME, organism-based
recorded conditions: in vivo
Here the recorded Drug uptake is given for each entry.

>  <molecule>
CNc1c2ccc([125I])cc2nc2ccc(OC)cc12

>  <measure unit>
% ID/g

>  <Drug uptake>
1.75

$$$$
>  <molecule>
COc1ccc2nc3cc([125I])ccc3c(N)c2c1

>  <measure unit>
% ID/g

>  <Drug uptake>
1.15

$$$$
>  <molecule>
COc1ccc2nc3cc([125I])ccc3c(OC)c2c1

>  <measure unit>
% ID/g

>  <Drug uptake>
2.14

$$$$
>  <molecule>
COc1c2ccc([125I])cc2nc2ccc(N(C)C)cc12

>  <measure unit>
% ID/g

>  <Drug uptake>
8.34

$$$$
>  <molecule>
COc1ccc2nc3cc([125I])ccc3c(N(C)C)c2c1

>  <measure unit>
% ID/g

>  <Drug uptake>
4.76

$$$$
>  <molecule>
CCN(CC)CCCC(C)Nc1c2ccc([125I])cc2nc2ccc(OC)cc12 (stereo unspecified)

>  <measure unit>
% ID/g

>  <Drug uptake>
4.21

$$$$

---

Here the recorded Drug uptake is given for each entry.
Test system: Intestine
run description: Biodistribution in ddY mouse intestine at 0.1 to 0.4 uCi, iv after 60 mins by gamma counting
Assay type: ADME, organism-based
recorded conditions: in vivo, 1 h

>  <compound>
COc1ccc2nc3cc([125I])ccc3c(OC)c2c1

>  <target system>
Intestine

>  <measure unit>
% ID/g

>  <Drug uptake>
20.17

$$$$
>  <compound>
COc1c2ccc([125I])cc2nc2ccc(N(C)C)cc12

>  <target system>
Intestine

>  <measure unit>
% ID/g

>  <Drug uptake>
11.2

$$$$
>  <compound>
CNc1c2ccc([125I])cc2nc2ccc(OC)cc12

>  <target system>
Intestine

>  <measure unit>
% ID/g

>  <Drug uptake>
23.83

$$$$
>  <compound>
COc1ccc2nc3cc([125I])ccc3c(N(C)C)c2c1

>  <target system>
Intestine

>  <measure unit>
% ID/g

>  <Drug uptake>
6.5

$$$$
>  <compound>
CCN(CC)CCCC(C)Nc1c2ccc([125I])cc2nc2ccc(OC)cc12 (stereo unspecified)

>  <target system>
Intestine

>  <measure unit>
% ID/g

>  <Drug uptake>
5.59

$$$$
>  <compound>
COc1ccc2nc3cc([125I])ccc3c(N)c2c1

>  <target system>
Intestine

>  <measure unit>
% ID/g

>  <Drug uptake>
11.2

$$$$
